Just for reference, patent US20190233493A1 is where these values come from.

Molecular target: T1, RXFP1 receptor (UniProt Q9HBX9 1-757, limits assumed)
T1 sequence (looked up): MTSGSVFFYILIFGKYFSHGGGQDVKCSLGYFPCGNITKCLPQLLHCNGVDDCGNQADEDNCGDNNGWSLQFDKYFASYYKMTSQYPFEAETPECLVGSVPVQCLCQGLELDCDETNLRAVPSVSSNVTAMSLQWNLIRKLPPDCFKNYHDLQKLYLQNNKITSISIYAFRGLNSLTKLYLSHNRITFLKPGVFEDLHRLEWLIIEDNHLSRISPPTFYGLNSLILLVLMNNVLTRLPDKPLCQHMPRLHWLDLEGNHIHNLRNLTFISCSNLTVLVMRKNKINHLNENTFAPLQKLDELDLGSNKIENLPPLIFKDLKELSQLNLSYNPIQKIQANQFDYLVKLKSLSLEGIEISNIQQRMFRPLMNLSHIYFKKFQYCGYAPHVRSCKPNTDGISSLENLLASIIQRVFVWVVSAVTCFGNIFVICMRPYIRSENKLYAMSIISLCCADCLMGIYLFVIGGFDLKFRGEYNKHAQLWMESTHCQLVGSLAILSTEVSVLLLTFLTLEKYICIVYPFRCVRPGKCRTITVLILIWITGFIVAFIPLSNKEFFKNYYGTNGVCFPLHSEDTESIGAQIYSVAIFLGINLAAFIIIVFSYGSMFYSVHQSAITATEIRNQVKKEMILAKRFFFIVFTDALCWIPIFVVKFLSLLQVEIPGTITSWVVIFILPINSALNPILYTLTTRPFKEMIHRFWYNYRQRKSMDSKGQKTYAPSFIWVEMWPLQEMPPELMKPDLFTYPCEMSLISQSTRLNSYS
Assay: cell-based or functional assay
*1 amine or outer side, *2 acyl side, *3 side chain or, on linkers, in order; H or OH if unused. Primed or numbered codes have the meaning given here. Side-chain parts run from the residue outwards. [ ]: non-standard residue; d: D form. The star is where a group is joined. γGlu = O=C(O)[C@H](CCC(=O)[*:2])N[*:1]; Stearoyl = CCCCCCCCCCCCCCCCCC(=O)*; Palmitoyl = CCCCCCCCCCCCCCCC(=O)*; Nle = CCCC[C@H](N)C(=O)O; PEG2′ = PEG2 spacer unit; PEG2″ = not defined here; Aib = CC(C)(N)C(=O)O
Doc: threshold 0.2 nM (exclusive). Items with EC50 (nM), OVCAR 5 cells (cAMP) beneath it return YES; others return NO.

Please check: EC50 (nM), OVCAR 5 cells (cAMP) for Ac-LEGREKVRAK(Ac)I[Aib][Aib]EGQSTWS[Aib]RKK(Ac)K([PEG2′-PEG2′-PEG2′-PEG2′-γGlu-γGlu-γGlu-γGlu-Stearoyl])-NH2 [peptide of SEQ ID NO: 180] , strictly under 0.2 nM or not?
NO

Please check: EC50 (nM), OVCAR 5 cells (cAMP) for Ac-LEGREKVRAK(Ac)I[Aib][Aib]EG[Nle]STWS[Aib]RKKK([PEG2′-PEG2′-PEG2′-PEG2′-γGlu-γGlu-γGlu-Stearoyl])-NH2 [peptide of SEQ ID NO: 91] , strictly under 0.2 nM or not?
YES

Please check: EC50 (nM), OVCAR 5 cells (cAMP) for Ac-LEGREKVRAQI[Aib][Aib]EG[Nle]STWS[Aib]RKK([γGlu-γGlu-PEG2″-PEG2″-γGlu-Stearoyl])-NH2 [peptide of SEQ ID NO: 104] , strictly under 0.2 nM or not?
YES

Please check: EC50 (nM), OVCAR 5 cells (cAMP) for Ac-LEGREKVRAQI[Aib][Aib]EG[Nle]STWS[Aib]RKKK[PEG2″][PEG2″][PEG2″][PEG2″][γGlu][γGlu][γGlu]K([γGlu-Palmitoyl])-NH2 [peptide of SEQ ID NO: 108] , strictly under 0.2 nM or not?
YES

Please check: EC50 (nM), OVCAR 5 cells (cAMP) for Ac-LEGREKVRAK(Ac)I[Aib][Aib]EG[Nle]STWS[Aib]RKK(Ac)K([PEG2′-PEG2′-PEG2′-γGlu-γGlu-γGlu-Palmitoyl])-NH2 [peptide of SEQ ID NO: 63] , strictly under 0.2 nM or not?
NO

Please check: EC50 (nM), OVCAR 5 cells (cAMP) for Ac-ELEGREKVRAAI[Aib][Aib]EG[Nle]STWS[Aib]RKK([PEG2′-PEG2′-γGlu-γGlu-Palmitoyl])-NH2 [peptide of SEQ ID NO: 57] , strictly under 0.2 nM or not?
NO

Please check: EC50 (nM), OVCAR 5 cells (cAMP) for Ac-LEGREKVRAK(Ac)I[Aib][Aib]EG[Nle]STFSXRKK(Ac)[PEG2′][PEG2′][PEG2′][PEG2′][γGlu][γGlu][γGlu]K([γGlu-Palmitoyl])-NH2 (not fully specified (some residues); printed as Ac-L-E-G-R-E-K-V-R-A-K(Ac)-I-Aib-Aib-E-G-Nle-S-T-F-S-Mly-R-K-K(Ac)-PEG2-PEG2-PEG2-PEG2-gE-gE-gE-K(gE-Palm)-NH2) [peptide of SEQ ID NO: 145] , strictly under 0.2 nM or not?
NO

Please check: EC50 (nM), OVCAR 5 cells (cAMP) for Ac-LEGREKVRAK(Ac)I[Aib][Aib]EG[Nle]STWS[Aib]RKKK([PEG2″-PEG2″-γGlu-γGlu-γGlu-PEG2″-γGlu-Stearoyl])-NH2 [peptide of SEQ ID NO: 102] , strictly under 0.2 nM or not?
YES

Please check: EC50 (nM), OVCAR 5 cells (cAMP) for Ac-LEGREKVRAK(Ac)I[Aib][Aib]EG[Nle]STWS[Aib]RKK(Ac)[PEG2″][PEG2″][PEG2″]K([γGlu-γGlu-γGlu-Palmitoyl])-NH2 [peptide of SEQ ID NO: 114] , strictly under 0.2 nM or not?
NO
